Measured values drawn from paper PMC5564600 for this set.

The entries below come with measured remaining activity at 1 µM values attached.
system: panel of 442 kinases (Homo sapiens, UniProt Q8WTQ7)
Construct: purchased Ambit Biosciences (scanMAXX KINOMEscan)
Sequence (Q8WTQ7 whole entry): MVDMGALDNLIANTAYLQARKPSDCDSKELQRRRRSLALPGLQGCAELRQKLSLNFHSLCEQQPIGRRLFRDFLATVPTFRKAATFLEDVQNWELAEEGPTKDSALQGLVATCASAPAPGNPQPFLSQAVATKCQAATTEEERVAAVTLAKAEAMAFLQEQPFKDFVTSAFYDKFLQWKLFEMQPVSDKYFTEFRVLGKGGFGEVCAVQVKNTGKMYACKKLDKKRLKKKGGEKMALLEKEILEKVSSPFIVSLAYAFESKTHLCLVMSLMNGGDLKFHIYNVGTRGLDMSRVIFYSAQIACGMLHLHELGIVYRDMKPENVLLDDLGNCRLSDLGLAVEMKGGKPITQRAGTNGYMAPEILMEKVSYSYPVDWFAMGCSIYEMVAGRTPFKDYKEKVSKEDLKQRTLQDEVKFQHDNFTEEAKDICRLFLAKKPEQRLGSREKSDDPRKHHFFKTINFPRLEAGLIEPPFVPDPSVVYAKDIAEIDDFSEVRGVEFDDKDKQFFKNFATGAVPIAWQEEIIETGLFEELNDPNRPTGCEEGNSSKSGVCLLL
assay info: biochemical
Assay type: binding
condition description: kinase GRK7; 1 µM; read-out: % of control at 1 µM
measured parameter: remaining activity at 1 µM

| molecule | measured parameter | result value |
| --- | --- | --- |
| Nc1cc(C(F)(F)F)c(-c2cc(N3CCOCC3)nc(N3CCOCC3)n2)cn1 [Buparlisib] | remaining activity at 1 µM | 77% |
| FC(F)c1nc2ccccc2n1-c1nc(N2CCOCC2)nc(N2CCOCC2)n1 [ZSTK474] | remaining activity at 1 µM | 98% |
| Cn1c(=O)n(-c2ccc(C(C)(C)C#N)cc2)c2c3cc(-c4cnc5ccccc5c4)ccc3ncc21 [Dactolisib] | remaining activity at 1 µM | 92% |
| COc1ncc(-c2ccc3nccc(-c4ccnnc4)c3c2)cc1NS(=O)(=O)c1ccc(F)cc1F [Omipalisib] | remaining activity at 1 µM | 100% |

----------
The entries below come with measured remaining activity at 1 µM values attached.
system: panel of 442 kinases (Homo sapiens, UniProt O95819)
Construct: purchased Ambit Biosciences (scanMAXX KINOMEscan)
Sequence (O95819 whole entry): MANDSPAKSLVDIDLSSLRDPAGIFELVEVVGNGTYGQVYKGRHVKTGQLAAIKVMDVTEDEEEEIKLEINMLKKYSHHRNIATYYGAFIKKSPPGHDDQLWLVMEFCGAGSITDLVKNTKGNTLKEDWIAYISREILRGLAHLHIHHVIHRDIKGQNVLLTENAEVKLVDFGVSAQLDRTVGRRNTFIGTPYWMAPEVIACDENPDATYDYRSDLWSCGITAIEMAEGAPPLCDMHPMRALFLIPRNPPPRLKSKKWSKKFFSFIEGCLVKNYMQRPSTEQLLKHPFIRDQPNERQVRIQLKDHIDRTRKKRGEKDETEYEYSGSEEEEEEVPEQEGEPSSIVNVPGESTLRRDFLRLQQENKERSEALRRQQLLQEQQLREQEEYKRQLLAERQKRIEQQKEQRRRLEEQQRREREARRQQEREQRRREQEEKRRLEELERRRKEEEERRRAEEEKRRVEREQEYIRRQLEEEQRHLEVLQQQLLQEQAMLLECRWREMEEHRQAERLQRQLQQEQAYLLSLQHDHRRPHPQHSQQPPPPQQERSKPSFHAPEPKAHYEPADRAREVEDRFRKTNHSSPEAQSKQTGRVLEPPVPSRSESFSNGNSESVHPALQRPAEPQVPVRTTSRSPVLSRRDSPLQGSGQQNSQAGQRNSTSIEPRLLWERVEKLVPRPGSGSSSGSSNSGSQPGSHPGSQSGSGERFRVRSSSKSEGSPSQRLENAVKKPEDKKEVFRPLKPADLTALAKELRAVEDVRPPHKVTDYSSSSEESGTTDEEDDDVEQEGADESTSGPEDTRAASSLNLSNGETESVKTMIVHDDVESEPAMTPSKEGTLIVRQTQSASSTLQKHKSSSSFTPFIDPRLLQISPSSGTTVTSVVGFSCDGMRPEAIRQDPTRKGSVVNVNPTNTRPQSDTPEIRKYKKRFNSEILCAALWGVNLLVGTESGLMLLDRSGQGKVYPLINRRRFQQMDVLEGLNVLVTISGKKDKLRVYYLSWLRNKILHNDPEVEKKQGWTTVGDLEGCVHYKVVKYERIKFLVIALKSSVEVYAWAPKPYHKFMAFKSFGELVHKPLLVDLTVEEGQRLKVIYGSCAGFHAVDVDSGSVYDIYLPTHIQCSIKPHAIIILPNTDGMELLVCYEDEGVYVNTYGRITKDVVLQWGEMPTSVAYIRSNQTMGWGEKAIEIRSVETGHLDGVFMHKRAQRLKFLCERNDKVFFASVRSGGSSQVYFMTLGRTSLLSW
assay info: biochemical
Assay type: binding
condition description: kinase MAP4K4; 1 µM; read-out: % of control at 1 µM

| smiles entry | remaining activity at 1 µM |
| --- | --- |
| FC(F)c1nc2ccccc2n1-c1nc(N2CCOCC2)nc(N2CCOCC2)n1 | 93% |
| Cn1c(=O)n(-c2ccc(C(C)(C)C#N)cc2)c2c3cc(-c4cnc5ccccc5c4)ccc3ncc21 | 73% |
| COc1ncc(-c2ccc3nccc(-c4ccnnc4)c3c2)cc1NS(=O)(=O)c1ccc(F)cc1F | 100% |
| Nc1cc(C(F)(F)F)c(-c2cc(N3CCOCC3)nc(N3CCOCC3)n2)cn1 | 100% |

----------
The entries below come with measured remaining activity at 1 µM values attached.
system: panel of 442 kinases (Homo sapiens, UniProt Q9Y243)
Construct: purchased Ambit Biosciences (scanMAXX KINOMEscan)
Sequence (Q9Y243 whole entry): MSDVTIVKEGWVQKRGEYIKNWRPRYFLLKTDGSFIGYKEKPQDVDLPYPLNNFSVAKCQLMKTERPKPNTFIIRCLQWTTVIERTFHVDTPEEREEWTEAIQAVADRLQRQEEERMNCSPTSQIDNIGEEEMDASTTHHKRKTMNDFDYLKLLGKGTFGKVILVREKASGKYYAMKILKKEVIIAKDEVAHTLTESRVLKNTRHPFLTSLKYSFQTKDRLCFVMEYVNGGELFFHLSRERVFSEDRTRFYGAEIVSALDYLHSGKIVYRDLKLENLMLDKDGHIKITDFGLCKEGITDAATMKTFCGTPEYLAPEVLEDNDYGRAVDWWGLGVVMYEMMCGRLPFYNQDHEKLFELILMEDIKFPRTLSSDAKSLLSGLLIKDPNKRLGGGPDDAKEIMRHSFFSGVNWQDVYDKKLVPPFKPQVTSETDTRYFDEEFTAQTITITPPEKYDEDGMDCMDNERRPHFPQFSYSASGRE
assay info: biochemical
Format: binding
condition description: AKT3; 1 µM; read-out: % of control at 1 µM

| molecule | remaining activity at 1 µM / % |
| --- | --- |
| FC(F)c1nc2ccccc2n1-c1nc(N2CCOCC2)nc(N2CCOCC2)n1 [ZSTK474] | 66 |
| COc1ncc(-c2ccc3nccc(-c4ccnnc4)c3c2)cc1NS(=O)(=O)c1ccc(F)cc1F [Omipalisib] | 100 |
| Cn1c(=O)n(-c2ccc(C(C)(C)C#N)cc2)c2c3cc(-c4cnc5ccccc5c4)ccc3ncc21 [Dactolisib] | 84 |
| Nc1cc(C(F)(F)F)c(-c2cc(N3CCOCC3)nc(N3CCOCC3)n2)cn1 [Buparlisib] | 84 |

----------
system: panel of 442 kinases (Homo sapiens)
Construct: purchased Ambit Biosciences (scanMAXX KINOMEscan)
assay info: biochemical
Type: binding
condition description: CDK3; 1 µM; read-out: % of control at 1 µM

| smiles entry | remaining activity at 1 µM |
| --- | --- |
| FC(F)c1nc2ccccc2n1-c1nc(N2CCOCC2)nc(N2CCOCC2)n1 | 100% |
| Cn1c(=O)n(-c2ccc(C(C)(C)C#N)cc2)c2c3cc(-c4cnc5ccccc5c4)ccc3ncc21 | 100% |
| COc1ncc(-c2ccc3nccc(-c4ccnnc4)c3c2)cc1NS(=O)(=O)c1ccc(F)cc1F | 82% |
| Nc1cc(C(F)(F)F)c(-c2cc(N3CCOCC3)nc(N3CCOCC3)n2)cn1 | 100% |
